Provenance of the data: paper PMC6544338

target: immobilized AChE (Electrophorus electricus); construct: purchased Sigma (St. Louis, MO, USA); assay: biochemical; type: binding; conditions: two-state model, 25°C; read-out: KD Kinetics

| COMPOUND | Kd (µM) |
| --- | --- |
| C[N+](C)(C)CCOC(N)=O [Carbachol, carbachol, reference compound] | 0.236 |
| CC(=O)SCC[N+](C)(C)C.[I-] [ATCI, acetylthiocholine iodide, reference compound] | 2.23 |
| Oc1cccc(O)c1O | 31.4 |
| C[C@@H]1O[C@@H](OC[C@H]2O[C@@H](Oc3c(-c4ccc(O)c(O)c4)oc4cc(O)cc(O)c4c3=O)[C@H](O)[C@@H](O)[C@@H]2O)[C@H](O)[C@H](O)[C@H]1O [Rutin hydrate, rutin hydrate] | 1180 |
| CC(/C=C/C=C(\C)C(=O)O[C@@H]1O[C@H](CO[C@@H]2O[C@H](CO)[C@@H](O)[C@H](O)[C@H]2O)[C@@H](O)[C@H](O)[C@H]1O)=C\C=C\C=C(C)\C=C\C=C(/C)C(=O)O[C@@H]1O[C@H](CO[C@@H]2O[C@H](CO)[C@@H](O)[C@H](O)[C@H]2O)[C@@H](O)[C@H](O)[C@H]1O | 470 |
| O.Oc1cc(O)c2c(c1)O[C@H](c1ccc(O)c(O)c1)[C@@H](O)C2 [Catechin hydrate, catechin hydrate] | 173 |

---

target: AChE (Electrophorus electricus); construct: purchased Sigma (St. Louis, MO, USA); test: Fluorescence spectral studies of AChE incubated with molecules; conditions: excitation 365 nm, control emission maxima […] nm, molecules at IC50 concentration, 10 min
Sequence (O42275 24-633): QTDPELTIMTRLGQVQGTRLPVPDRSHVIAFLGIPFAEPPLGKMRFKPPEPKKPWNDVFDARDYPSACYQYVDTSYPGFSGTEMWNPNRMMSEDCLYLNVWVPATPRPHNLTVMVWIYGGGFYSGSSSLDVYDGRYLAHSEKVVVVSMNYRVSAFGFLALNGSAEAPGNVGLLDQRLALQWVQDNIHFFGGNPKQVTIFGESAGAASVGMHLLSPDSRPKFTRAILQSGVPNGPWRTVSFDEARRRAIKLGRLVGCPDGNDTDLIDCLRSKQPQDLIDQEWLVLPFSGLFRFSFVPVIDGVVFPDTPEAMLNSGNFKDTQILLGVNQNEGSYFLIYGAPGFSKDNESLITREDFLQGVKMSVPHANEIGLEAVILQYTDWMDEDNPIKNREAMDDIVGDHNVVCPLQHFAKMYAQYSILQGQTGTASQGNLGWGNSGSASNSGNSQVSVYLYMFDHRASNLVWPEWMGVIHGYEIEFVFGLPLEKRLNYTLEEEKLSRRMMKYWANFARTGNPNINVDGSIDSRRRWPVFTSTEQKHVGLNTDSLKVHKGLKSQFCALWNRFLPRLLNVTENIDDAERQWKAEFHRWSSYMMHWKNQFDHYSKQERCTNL
PROPERTY_LABEL: change in fluorescence emission of AChE compared to control enzyme

| COMPOUND | OBS_VALUE |
| --- | --- |
| CC(=O)SCC[N+](C)(C)C.[I-] [ATCI, acetylthiocholine iodide, reference compound] | no change |
| CC(/C=C/C=C(\C)C(=O)O[C@@H]1O[C@H](CO[C@@H]2O[C@H](CO)[C@@H](O)[C@H](O)[C@H]2O)[C@@H](O)[C@H](O)[C@H]1O)=C\C=C\C=C(C)\C=C\C=C(/C)C(=O)O[C@@H]1O[C@H](CO[C@@H]2O[C@H](CO)[C@@H](O)[C@H](O)[C@H]2O)[C@@H](O)[C@H](O)[C@H]1O | redshift |
| O.Oc1cc(O)c2c(c1)O[C@H](c1ccc(O)c(O)c1)[C@@H](O)C2 [Catechin hydrate, catechin hydrate] | redshift |
| C[N+](C)(C)CCOC(N)=O [Carbachol, carbachol, reference compound] | no change |

---

Target: AChE (Electrophorus electricus)
Construct: purchased Sigma (St. Louis, MO, USA)
Experiment: Far-UV circular dichroism of AChE with small molecules (secondary structure composition)
Conditions: single molecule; AChE alone 0
Protocol: Protein solutions 0.5 milligram per milliliter (mgml^-1) was prepared in 10 mM PBS at pH 7.7. […] The CD spectrum of AChE enzyme individually and with different small molecules, also in combination was recorded. […] Results were expressed as molar ellipticity (°cm^2 dmol^-1) based on a mean amino acid residue weight (MRW) 110 Da for AChE. […]
Counter-ions that a name gives are not always drawn.
PROPERTY_LABEL: Turns of AChE in presence of the molecule (%)

| COMPOUND | UNITS | OBS_VALUE |
| --- | --- | --- |
| Oc1cccc(O)c1O | % | 0 |
| C[C@@H]1O[C@@H](OC[C@H]2O[C@@H](Oc3c(-c4ccc(O)c(O)c4)oc4cc(O)cc(O)c4c3=O)[C@H](O)[C@@H](O)[C@@H]2O)[C@H](O)[C@H](O)[C@H]1O [Rutin hydrate, rutin hydrate] | % | 0 |
| O.Oc1cc(O)c2c(c1)O[C@H](c1ccc(O)c(O)c1)[C@@H](O)C2 [Catechin hydrate, catechin hydrate] | % | 0 |
| C[N+](C)(C)CCOC(N)=O [Carbachol, carbachol, reference compound] | % | 2.6 |
| CC(/C=C/C=C(\C)C(=O)O[C@@H]1O[C@H](CO[C@@H]2O[C@H](CO)[C@@H](O)[C@H](O)[C@H]2O)[C@@H](O)[C@H](O)[C@H]1O)=C\C=C\C=C(C)\C=C\C=C(/C)C(=O)O[C@@H]1O[C@H](CO[C@@H]2O[C@H](CO)[C@@H](O)[C@H](O)[C@H]2O)[C@@H](O)[C@H](O)[C@H]1O | % | 0 |
| CC(=O)SCC[N+](C)(C)C.[I-] [ATCI, acetylthiocholine iodide, reference compound] | % | 0 |
| O=c1c(O)c(-c2ccc(O)c(O)c2)oc2cc(O)cc(O)c12 | % | 1.0 |
| O[C@H]1[C@H]2c3cc4c(cc3CN3CCC(=C[C@@H]1O)[C@H]23)OCO4 [Lycorine hydrochloride, lycorine hydrochloride] | % | 0 |
